Assay Comment: Quantitative High-Throughput drug screen in 47 multiple myeloma cell lines against the NCATS MIPE library collection: ARP1_JJKsccF8 cell viability assay (AID 1918928; note: nearly all actives have a fitted effect of over 40% in size; note: potency is the fitted concentration of half-maximal effect)
Experimental Context: ARP1 myeloma cells viability, CellTiter-Glo ATP, 48 h; series mostly up to 45.8 µM
Results filed as inconclusive are left out. Activity calls are given as the source filed them. Calls come from the whole dose curve; as a rule, active = well fitted cell-killing curve with a large enough effect; inconclusive = small, poorly fitted or top-dose-only effect, or effect the other way; inactive = no such curve, though single readings can be large or run the other way.
Recorded Endpoint: Potency

Example cases with answers are listed next.
# Compound, Potency
data = [
    ("CN(C)c1nc(Cc2ccc(NC(=O)c3ccc(C(F)(F)F)cc3)cc2)nc(N(C)C)c1CC(=O)O", "inactive"),
    ("CCOc1ccccc1N=Nc1c(C)[nH]n(-c2nc(-c3ccccc3)cs2)c1=O", "inactive"),
    ("CC(=O)Nc1cccc(-n2c(=O)n(C3CC3)c(=O)c3c(Nc4ccc(I)cc4F)n(C)c(=O)c(C)c32)c1", "inactive"),
    ("CN1CC(=O)NC1=NC(=O)Nc1cccc(Cl)c1", "20.9 µM (active)"),
    ("CN1N=C(N)c2cn([C@@H]3O[C@H](COP(=O)(O)O)[C@@H](O)[C@@H]3O)c3ncnc1c23", "0.469 µM (active)"),
]

Challenge: So what does the record say about Potency for CN1CCc2c(n(Cc3ccc(C(=O)NO)cc3)c3ccccc23)C1 ?
Response given: 18.7 µM (active)

Challenge: Quick one: Potency of Cc1cnc(CNC(=O)c2c(=O)c3ccc(N4CCCN(C)CC4)nc3n3c2sc2ccccc23)cn1 ?
Response given: 9.11 µM (active)

Challenge: What Potency value was documented for this compound, CCCC1OC2C[C@@H]3[C@H]4CCC5=CC(=O)C=C[C@]5(C)[C@H]4C(O)C[C@]3(C)[C@]2(C(=O)CO)O1 (stereo not given in full) ?
Response given: 0.469 µM (active)

Challenge: Please give the measured Potency for this compound: CO[C@H]1/C=C\O[C@@]2(C)Oc3c(C)c(O)c4c(O)c(c(C=NN5CCN(C6CCCC6)CC5)c(O)c4c3C2=O)NC(=O)C(C)=CC=C[C@H](C)[C@H](O)[C@@H](C)[C@@H](O)[C@@H](C)[C@H](OC(C)=O)[C@H]1C
Response given: 10.5 µM (active)

Challenge: Can you share its Potency? I mean this compound: C[C@@H]1[C@H](C)CC[C@]2(C(=O)O)CC[C@]3(C)C(=CC[C@@H]4[C@@]5(C)CC[C@H](O)C(C)(C)[C@H]5CC[C@]43C)[C@@H]12
Response given: 42.9 µM (active)

* * *

Assay Comment: qHTS of pediatric cancer cell lines to identify multiple opportunities for drug repurposing: Primary screen for Rh18 cells (AID 1347102); note: nearly all actives have a fitted effect of over 65% in size
Experimental Context: Rh18 rhabdomyosarcoma viability, CellTiter-Glo luminescence, 48 h; series mostly up to 46 µM
Results filed as inconclusive are left out. Activity calls are given as the source filed them. The call rests on the fitted dose curve; in most records, active means well fitted cell-killing curve with a large enough effect; inconclusive means small, poorly fitted or top-dose-only effect; inactive means flat fitted curve, though single readings scatter.
Entry note: the call must match one of t for active, f for inactive

# Compound, Qualitative Label
data = [
    ("CN1CC(=O)N2C(Cc3c([nH]c4ccccc34)[C@H]2c2ccc3c(c2)OCO3)C1=O (some centres not stated)", "f"),
    ("O=C(c1ccc(C(=O)N2CCC(N3CCCC3)CC2)c(Nc2ccccc2)c1)N1CCC(N2CCCC2)CC1", "f"),
    ("N#Cc1ccc(Oc2ccc3c(c2)COB3O)cc1", "f"),
    ("Nc1[nH]nc2nnc(-c3c(-c4ccccc4)nn4ccccc34)cc12", "t"),
    ("CC=C1C2C=C(C)CC1(N)c1ccc(=O)[nH]c1C2 (configuration not stated)", "f"),
]

Challenge: Call for entry COc1ccc(-c2cc(=O)c3c(O)cc(O[C@@H]4O[C@H](CO[C@@H]5O[C@@H](C)[C@H](O)[C@@H](O)[C@@H]5O)[C@@H](O)[C@H](O)[C@@H]4O)cc3o2)cc1O :
Response given: f

Challenge: Hi, sorry to bother you, what did the test record for O=C1CCCC(=O)C1C(=O)c1ccc(C(F)(F)F)cc1[N+](=O)[O-] ?
Response given: f
